# target.under.test: T1, S287A
# T1 construct: % monomer 90.34; also called MICA*008.mIgG2a S287A
# T1 chain: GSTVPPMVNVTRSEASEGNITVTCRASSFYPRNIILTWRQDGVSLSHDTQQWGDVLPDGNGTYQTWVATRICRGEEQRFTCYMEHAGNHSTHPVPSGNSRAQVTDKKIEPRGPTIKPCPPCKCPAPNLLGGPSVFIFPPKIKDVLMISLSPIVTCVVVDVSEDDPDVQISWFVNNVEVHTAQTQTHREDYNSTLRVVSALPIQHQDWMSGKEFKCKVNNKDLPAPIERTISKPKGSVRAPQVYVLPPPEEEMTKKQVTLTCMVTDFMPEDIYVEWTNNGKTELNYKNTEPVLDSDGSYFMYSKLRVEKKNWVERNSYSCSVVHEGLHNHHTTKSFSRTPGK
# experiment.summary: SPR, Fab over captured MICA*008.mIgG2a Ala variant; KD relative to wild type
Below, each entry is listed with its recorded fold-decrease in affinity.
Lab note: write the figure by itself, no unit.

{"binder": "1D5 Fab (Fab, V domains shown, Expressed in E. coli as chimera of murine variable and human constant domains; not shown: human IgG1 CH1 constant domain; human kappa CL constant domain) VH: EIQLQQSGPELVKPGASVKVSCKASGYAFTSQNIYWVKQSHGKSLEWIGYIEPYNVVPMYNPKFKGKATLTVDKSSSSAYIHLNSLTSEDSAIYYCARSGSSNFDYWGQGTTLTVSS VL: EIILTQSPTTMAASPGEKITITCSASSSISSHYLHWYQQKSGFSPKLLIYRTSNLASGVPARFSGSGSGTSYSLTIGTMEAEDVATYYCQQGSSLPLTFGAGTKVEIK", "fold-decrease in affinity": 4.9}
{"binder": "2E5.2.3 Fab (Fab, V domains shown) VH: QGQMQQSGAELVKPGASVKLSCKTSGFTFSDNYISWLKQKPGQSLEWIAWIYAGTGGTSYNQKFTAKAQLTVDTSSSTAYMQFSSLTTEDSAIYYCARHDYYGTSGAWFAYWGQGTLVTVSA VL: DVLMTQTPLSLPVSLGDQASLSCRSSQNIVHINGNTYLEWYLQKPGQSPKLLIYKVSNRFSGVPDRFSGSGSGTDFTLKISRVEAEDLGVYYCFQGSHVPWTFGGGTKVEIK", "fold-decrease in affinity": 1}

Shift focus to the following entry.
Give recorded fold-decrease in affinity. 7D4.6 Fab (Fab, V domains shown) VH: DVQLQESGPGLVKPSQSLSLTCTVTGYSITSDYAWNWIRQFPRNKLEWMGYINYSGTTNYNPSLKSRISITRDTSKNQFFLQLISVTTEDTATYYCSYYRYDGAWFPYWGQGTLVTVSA VL: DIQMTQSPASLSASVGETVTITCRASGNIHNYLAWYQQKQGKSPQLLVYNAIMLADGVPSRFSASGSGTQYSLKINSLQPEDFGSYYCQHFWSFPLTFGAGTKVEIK 1.3

Reference for the values: patent US20200055939A1
